The reported measurements were obtained from ChEMBL document CHEMBL5236576.

Test: Intrinsic clearance in rat
Type: ADME
Assign yes to entries whose CLint scaled meets or exceeds 200 mL/min/kg; assign no to the rest.

[[record]]
compound = "O=C(Nc1ccc2scnc2c1)[C@@H]1CCN(S(=O)(=O)c2ccc3c(c2)CCO3)C1"
qualitativelabel = "yes"

[[record]]
compound = "O=C(Nc1ccc2scnc2c1)[C@@H]1CCN(S(=O)(=O)c2ccc3c(c2)OCO3)C1"
qualitativelabel = "yes"

[[record]]
compound = "O=C(Nc1ccc2scnc2c1)[C@@H]1CCN(S(=O)(=O)c2ccc3ncsc3c2)C1"
qualitativelabel = "no"

[[record]]
compound = "O=C(Nc1ccc2scnc2c1)C1CCN(S(=O)(=O)c2ccc3c(c2)CCO3)C1 (stereo unspecified)"
qualitativelabel = "yes"


Now take the following compound into account.
**Q:** Tell me whether CLint scaled is at least 200 mL/min/kg here: `[2H]C1([2H])Oc2ccc(S(=O)(=O)N3CC[C@@H](C(=O)Nc4ccc5scnc5c4)C3)cc2C1([2H])[2H]`
**A:** no
